Data origin, for the record: ChEMBL document CHEMBL4261631

Biological target: Low molecular weight protein-tyrosine phosphatase A (Mycobacterium tuberculosis)
Assay: Non-competitive inhibition of Mycobacterium tuberculosis PtpA using p-nitrophenyl phosphate as substrate by Michaelis-Menten plot analysis
pKi: −log10 of the molar value.
REPORTED_PROPERTY: pKi

• S=C(N/N=C/c1ccc(-c2ccccc2)cc1)Nc1cccc2ccccc12 = 5.25
• FC(F)(F)c1ccc(Cl)c(-c2ccc(/C=N/NC(=S)Nc3cccc4ccccc34)o2)c1 = 5.77
• O=[N+]([O-])c1ccc(/C=N/NC(=S)Nc2cccc3ccccc23)cc1 = 5.92

###

Molecular target: Tyrosine-protein phosphatase non-receptor type 1 (Homo sapiens)
Sequence (P18031 whole entry): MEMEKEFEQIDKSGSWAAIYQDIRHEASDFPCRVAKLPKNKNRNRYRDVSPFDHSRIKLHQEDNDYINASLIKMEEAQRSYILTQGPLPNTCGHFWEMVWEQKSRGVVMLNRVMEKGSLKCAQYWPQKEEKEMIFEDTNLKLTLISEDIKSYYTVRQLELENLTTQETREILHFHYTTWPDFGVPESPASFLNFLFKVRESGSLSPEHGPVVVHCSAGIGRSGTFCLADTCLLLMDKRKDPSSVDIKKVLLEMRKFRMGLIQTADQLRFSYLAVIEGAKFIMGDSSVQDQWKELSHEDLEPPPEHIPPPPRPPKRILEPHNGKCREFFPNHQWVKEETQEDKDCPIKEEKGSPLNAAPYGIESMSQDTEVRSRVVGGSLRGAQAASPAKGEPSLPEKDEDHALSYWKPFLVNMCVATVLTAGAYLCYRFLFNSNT
Assay: Inhibition of recombinant human Ptp1B using p-nitrophenyl phosphate as substrate preincubated for 10 mins followed by substrate addition and measured every minute for 10 mins by UV-VIS spectrophotometric analysis
REPORTED_PROPERTY: IC50 (µM)

* Cc1ccc(NC(=S)N/N=C/c2ccc(-c3cc(C(F)(F)F)ccc3Cl)o2)cc1 | 38.2
* FC(F)(F)c1ccc(Cl)c(-c2ccc(/C=N/NC(=S)Nc3cccc4ccccc34)o2)c1 | 9.4
* O=[N+]([O-])c1ccc(/C=N/NC(=S)Nc2cccc3ccccc23)cc1 | 17

###

Target: Low molecular weight protein-tyrosine phosphatase A (Mycobacterium tuberculosis, UniProt P9WIA1)
Sequence (P9WIA1 whole entry): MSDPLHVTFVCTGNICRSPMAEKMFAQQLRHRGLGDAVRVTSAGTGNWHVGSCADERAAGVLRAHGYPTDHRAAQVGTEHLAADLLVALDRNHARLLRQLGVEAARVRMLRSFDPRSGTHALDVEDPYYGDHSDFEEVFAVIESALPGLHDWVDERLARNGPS
Assay: Inhibition of recombinant Mycobacterium tuberculosis PtpA using p-nitrophenyl phosphate as substrate preincubated for 10 mins followed by substrate addition and measured every minute for 10 mins by UV-VIS spectrophotometric analysis
pIC50: −log10 of the molar value.
Assign yes (1) to entries whose pIC50 meets or exceeds 5; assign no (0) to the rest.

- COc1ccc(/C=N/NC(=S)Nc2cccc3ccccc23)cc1OC: no (0)
- S=C(N/N=C/c1ccc2c(c1)OCO2)Nc1cccc2ccccc12: no (0)
- S=C(N/N=C/c1ccc2ccccc2c1)Nc1cccc2ccccc12: no (0)
- COc1ccc(NC(=S)N/N=C/c2ccc([N+](=O)[O-])cc2)cc1: no (0)
- FC(F)(F)c1ccc(Cl)c(-c2ccc(/C=N/NC(=S)Nc3cccc4ccccc34)o2)c1: yes (1)

###

Assay: Selectivity index, ratio of IC50 for recombinant human Ptp1B to IC50 for recombinant Mycobacterium tuberculosis PtpA
REPORTED_PROPERTY: Ratio IC50

* O=[N+]([O-])c1ccc(/C=N/NC(=S)Nc2cccc3ccccc23)cc1 | 1.8
* FC(F)(F)c1ccc(Cl)c(-c2ccc(/C=N/NC(=S)Nc3cccc4ccccc34)o2)c1 | 3.2
* Cc1ccc(NC(=S)N/N=C/c2ccc(-c3cc(C(F)(F)F)ccc3Cl)o2)cc1 | 4.2

###

Molecular target: UniProt:P9WIA1
Test: Inhibition of recombinant Mycobacterium tuberculosis PtpA at 25 uM using p-nitrophenyl phosphate as substrate preincubated for 10 mins followed by substrate addition and measured every minute for 10 mins by UV-VIS spectrophotometric analysis
Each item that follows carries a reported inhibition.
REPORTED_PROPERTY: inhibition (%)

• COc1ccc(NC(=S)N/N=C/c2ccc3ccccc3c2)cc1 = 23.7
• S=C(N/N=C/c1ccc2c(c1)OCO2)Nc1cccc2ccccc12 = 62.6
• COc1ccc(NC(=S)N/N=C/c2ccc3c(c2)OCO3)cc1 = 0
• Cc1ccc(NC(=S)N/N=C/c2ccc(-c3cc(C(F)(F)F)ccc3Cl)o2)cc1 = 66
• COc1ccc(NC(=S)N/N=C/c2ccc(N(C)C)cc2)cc1 = 3.9
• S=C(N/N=C/c1ccc(Cl)c(Cl)c1)Nc1cccc2ccccc12 = 83.7
• COc1ccc(/C=N/NC(=S)Nc2ccc(OC)cc2)cc1 = 0
• COc1ccc(/C=N/NC(=S)Nc2cccc3ccccc23)cc1 = 22.6
• COc1ccc(/C=N/NC(=S)Nc2ccc(C)cc2)cc1OC = 6.6
• COc1ccc(NC(=S)N/N=C/c2ccc(O)c(OC)c2)cc1 = 6.6
• COc1cc(/C=N/NC(=S)Nc2cccc3ccccc23)cc(OC)c1OC = 0

###

Entries annotated with measured inhibition
Molecular target: Low molecular weight protein-tyrosine phosphatase A (Mycobacterium tuberculosis)
Assay: Inhibition of recombinant Mycobacterium tuberculosis PtpA at 25 uM using p-nitrophenyl phosphate as substrate preincubated for 10 mins followed by substrate addition and measured every minute for 10 mins by UV-VIS spectrophotometric analysis
REPORTED_PROPERTY: inhibition (%)

• COc1ccc(OC)c(/C=N/NC(=S)Nc2cccc3ccccc23)c1 = 44.2
• Cc1ccc(NC(=S)N/N=C/c2cccc3ccccc23)cc1 = 33.7
• COc1ccc(OC)c(/C=N/NC(=S)Nc2ccc(C)cc2)c1 = 2.8
• Cc1ccc(NC(=S)N/N=C/c2ccc(N(C)C)cc2)cc1 = 35.4
• COc1ccc(NC(=S)N/N=C/c2ccccc2[N+](=O)[O-])cc1 = 0
• COc1ccc(NC(=S)N/N=C/c2ccc(Cl)c(Cl)c2)cc1 = 21.4
• COc1cc(/C=N/NC(=S)Nc2ccc(C)cc2)ccc1O = 8.8
• COc1cc(/C=N/NC(=S)Nc2ccc(C)cc2)cc(OC)c1OC = 0
• O=[N+]([O-])c1ccccc1/C=N/NC(=S)Nc1cccc2ccccc12 = 52.4
• Cc1ccc(NC(=S)N/N=C/c2ccc3c(c2)OCO3)cc1 = 25.9
• FC(F)(F)c1ccc(Cl)c(-c2ccc(/C=N/NC(=S)Nc3cccc4ccccc34)o2)c1 = 86.7
• S=C(N/N=C/c1ccc2ccccc2c1)Nc1cccc2ccccc12 = 67.7
• O=[N+]([O-])c1ccc(/C=N/NC(=S)Nc2cccc3ccccc23)cc1 = 77.7
• Cc1ccc(NC(=S)N/N=C/c2ccc([N+](=O)[O-])cc2)cc1 = 37.2

###

Tested on: Mycobacterium tuberculosis
Assay: Selectivity index, ratio of IC50 for recombinant Mycobacterium tuberculosis PtpB to IC50 for recombinant Mycobacterium tuberculosis PtpA
REPORTED_PROPERTY: Ratio IC50

• Cc1ccc(NC(=S)N/N=C/c2ccc(-c3cc(C(F)(F)F)ccc3Cl)o2)cc1 = 3.3
• O=[N+]([O-])c1ccc(/C=N/NC(=S)Nc2cccc3ccccc23)cc1 = 1.9
• S=C(N/N=C/c1ccc(-c2ccccc2)cc1)Nc1cccc2ccccc12 = 2.4
• FC(F)(F)c1ccc(Cl)c(-c2ccc(/C=N/NC(=S)Nc3cccc4ccccc34)o2)c1 = 2.1

###

Biological target: Tyrosine-protein phosphatase YopH (Yersinia enterocolitica, UniProt P15273)
Sequence (P15273 whole entry): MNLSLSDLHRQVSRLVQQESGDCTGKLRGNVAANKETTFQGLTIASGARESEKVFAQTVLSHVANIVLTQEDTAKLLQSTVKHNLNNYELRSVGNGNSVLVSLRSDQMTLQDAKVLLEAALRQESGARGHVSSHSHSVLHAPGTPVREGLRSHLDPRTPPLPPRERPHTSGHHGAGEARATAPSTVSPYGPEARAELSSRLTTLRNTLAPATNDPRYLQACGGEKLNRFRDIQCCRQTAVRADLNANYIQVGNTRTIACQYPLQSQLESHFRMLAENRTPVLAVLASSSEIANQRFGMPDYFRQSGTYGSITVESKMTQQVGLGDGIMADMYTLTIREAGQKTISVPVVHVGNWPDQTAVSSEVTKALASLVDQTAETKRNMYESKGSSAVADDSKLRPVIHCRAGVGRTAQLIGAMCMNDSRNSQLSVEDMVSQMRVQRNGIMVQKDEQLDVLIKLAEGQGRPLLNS
Test: Inhibition of recombinant Yersinia enterocolitica YopH using p-nitrophenyl phosphate as substrate preincubated for 10 mins followed by substrate addition and measured every minute for 10 mins by UV-VIS spectrophotometric analysis
REPORTED_PROPERTY: IC50 (µM)

• S=C(N/N=C/c1ccc(-c2ccccc2)cc1)Nc1cccc2ccccc12 = 6.5
• FC(F)(F)c1ccc(Cl)c(-c2ccc(/C=N/NC(=S)Nc3cccc4ccccc34)o2)c1 = 2.6
• O=[N+]([O-])c1ccc(/C=N/NC(=S)Nc2cccc3ccccc23)cc1 = 7.1
• Cc1ccc(NC(=S)N/N=C/c2ccc(-c3cc(C(F)(F)F)ccc3Cl)o2)cc1 = 6.9

###

Assay: Selectivity index, ratio of IC50 for recombinant human PTP-PEST to IC50 for recombinant Mycobacterium tuberculosis PtpA
REPORTED_PROPERTY: Ratio IC50

* FC(F)(F)c1ccc(Cl)c(-c2ccc(/C=N/NC(=S)Nc3cccc4ccccc34)o2)c1 | 5.4
* Cc1ccc(NC(=S)N/N=C/c2ccc(-c3cc(C(F)(F)F)ccc3Cl)o2)cc1 | > 5.5
* S=C(N/N=C/c1ccc(-c2ccccc2)cc1)Nc1cccc2ccccc12 | > 6.8
* O=[N+]([O-])c1ccc(/C=N/NC(=S)Nc2cccc3ccccc23)cc1 | > 5.3

###

Below is a list of entries, each paired with its recorded Ratio IC50 value.
Assay: Selectivity index, ratio of IC50 for recombinant Yersinia enterocolitica YopH to IC50 for recombinant Mycobacterium tuberculosis PtpA
REPORTED_PROPERTY: Ratio IC50

• S=C(N/N=C/c1ccc(-c2ccccc2)cc1)Nc1cccc2ccccc12 = 0.9
• FC(F)(F)c1ccc(Cl)c(-c2ccc(/C=N/NC(=S)Nc3cccc4ccccc34)o2)c1 = 0.9
• O=[N+]([O-])c1ccc(/C=N/NC(=S)Nc2cccc3ccccc23)cc1 = 0.7
• Cc1ccc(NC(=S)N/N=C/c2ccc(-c3cc(C(F)(F)F)ccc3Cl)o2)cc1 = 0.8
